- Tested on: NOMO1
- Protocol details: cell viability relative to DMSO control; higher = less cytotoxic
- Protocol conditions: HPLM + 10% dialyzed FBS; 48 h; 1.71 µM
# cell viability listing for each entry below

Smiles str: CN(C)CCN(Cc1ccc(Cl)cc1)c1ccccn1.Cl
Unit tag: %
cell viability: 63.8
//
Smiles str: OC1=CC=C(C=C1)\C2=C\C(=O)C3=C(O2)C=C(O)C=C3O
Unit tag: %
cell viability: 107
//
Smiles str: CCN(CC)CCN1C(=O)\C(=N/C2=CC=CC=C12)CC3=CC=C(OC)C=C3
Unit tag: %
cell viability: 115

###

- Test system: P12-Ichikawa
- Protocol details: cell viability relative to DMSO control; higher = less cytotoxic
- Protocol conditions: RPMI 5 mM glucose + 10% dialyzed FBS; 48 h; 46.1 µM
Measured quantity: cell viability (%)

Molecule: CC(C)(C)NC(=O)[C@H]1CC[C@H]2[C@@H]3CC[C@H]4NC(=O)\C=C/[C@]4(C)[C@H]3CC[C@]12C
Meas value: 35.6

Molecule: Oc1cc(O)cc(/C=C/c2ccc(O)c(O)c2)c1
Meas value: 40.7

Molecule: CC(NCc1ccc2c(c1)[nH]/c(=N\C(=O)c1ccc(-c3cn[nH]c3)s1)n2CC(C)(C)O)C(C)(C)C (centres undefined)
Meas value: 3.31

Molecule: Cc1c(C(=O)Nc2cccc(C(F)(F)F)c2)cc(-c2ccccc2)n1CCCN1CCOCC1
Meas value: 74.1

###

- System: NOMO1
- Protocol details: cell viability relative to DMSO control; higher = less cytotoxic
- Protocol conditions: RPMI 5 mM glucose + 10% dialyzed FBS; 48 h; 0.19 µM
# cell viability listing for each entry below
Measured quantity: cell viability (%)

Smiles str: CN(C)C[C@@H]1CC[N]2C=C(C3=C2C=CC=C3)C/4=C(/C(=O)NC4=O)C5=C[N](CCO1)C6=C5C=CC=C6
Unit tag: %
Meas value: 97.3
--
Smiles str: CCOC1=CC(=CC=C1C/2=N/[C@@](C)(C3=CC=C(Cl)C=C3)[C@](C)(N2C(=O)N4CCN(CC4)CC(=O)N5CCOCC5)C6=CC=C(Cl)C=C6)C(C)(C)C
Unit tag: %
Meas value: 120
--
Smiles str: Oc1cc(O)cc(/C=C/c2ccc(O)c(O)c2)c1
Unit tag: %
Meas value: 98.4
--
Smiles str: COc1ccc(Nc2cc(-c3cnc(N)nc3)nc(N3CCOCC3)n2)cn1
Unit tag: %
Meas value: 76.8
--
Smiles str: COc1cc(N[S+](=O)([O-])c2ccc(N)cc2)nc(OC)n1
Unit tag: %
Meas value: 115
--
Smiles str: CNCC(O)C(O)C(O)C(O)CO.O=C(O)c1ccc(-c2cc3cccnc3c(-c3ccc4nonc4c3)n2)cc1
Unit tag: %
Meas value: 111

###

- System: P12-Ichikawa
- Protocol details: cell viability relative to DMSO control; higher = less cytotoxic
- Protocol conditions: RPMI 5 mM glucose + 10% dialyzed FBS; 48 h; 46.1 µM

Smiles str: O=c1[nH]cnc2c1ncn2[C@H]1CC[C@@H](CO)O1
cell viability [%]: 67.1
//
Smiles str: N[C@@H](CC(=O)N1CCn2c(nnc2C(F)(F)F)C1)Cc1cc(F)c(F)cc1F
cell viability [%]: 88
//
Smiles str: COc1cc([C@@H]2c3cc4c(cc3[C@@H](O[C@@H]3O[C@@H]5CO[C@@H](c6cccs6)O[C@H]5[C@H](O)[C@H]3O)[C@H]3COC(=O)[C@H]23)OCO4)cc(OC)c1O
cell viability [%]: 4.64
//
Smiles str: CN(C)c1ccc(Nc2nc(N)n(C(=O)c3c(F)cccc3F)n2)cc1
cell viability [%]: 68.3
//
Smiles str: CC(C)(C)c1cc(C(=O)O)c(NC(=O)Nc2ccc3[nH]ncc3c2)s1
cell viability [%]: 91
//
Smiles str: Cc1cn(CCN2CCN(c3ccccc3-c3cc(C#N)cc(C(=O)NCCCN4CCCC4)c3)CC2)c2ccccc12
cell viability [%]: 19.9

###

- Test system: P12-Ichikawa
- Protocol details: cell viability relative to DMSO control; higher = less cytotoxic
- Protocol conditions: HPLM + 10% dialyzed FBS; 48 h; 0.000781 µM
Measured quantity: cell viability (%)

Compound: CN[S+](=O)([O-])CCc1ccc2[nH]cc(C3CCN(C)CC3)c2c1
Meas value: 95.6

Compound: NC(=O)Nc1cc(-c2ccc(CN3CCOCC3)cc2)sc1C(N)=O
Meas value: 121

Compound: CC(=O)O[C@@]12CO[C@@H]1C[C@H](O)[C@]3(C)[C@@H]2[C@H](OC(=O)C4=CC=CC=C4)[C@]5(O)C[C@H](OC(=O)C(O)[C@@H](NC(=O)OC(C)(C)C)C6=CC=CC=C6)C(=C(/[C@@H](O)C3=O)C5(C)C)/C (stereo partly drawn)
Meas value: 28

Compound: O=C1CCc2ccc(OCCCCN3CCN(c4cccc(Cl)c4Cl)CC3)cc2N1
Meas value: 99

Compound: COC1=CC=C(C=C1)C2CC(=N/N2C3=CC=C(C=C3)[S+](N)([O-])=O)\C4=CC=CC=C4 (stereo not drawn)
Meas value: 95.3

Compound: Cc1cc(O)c2c(c1)C(=O)c1cc(O)cc(O)c1C2=O
Meas value: 99.9

Compound: CCN(CC)CCN1C(=O)\C(=N/C2=CC=CC=C12)CC3=CC=C(OC)C=C3
Meas value: 107

Compound: COc1cc([C@@H]2c3cc4c(cc3[C@@H](O[C@@H]3O[C@@H]5CO[C@@H](c6cccs6)O[C@H]5[C@H](O)[C@H]3O)[C@H]3COC(=O)[C@H]23)OCO4)cc(OC)c1O
Meas value: 89.9

###

- Tested on: SEM cells
- Protocol details: AUC of viability dose-response curve (% viability x log10 dose units); higher = less sensitive
- Protocol conditions: RPMI 5 mM glucose + 10% dialyzed FBS; 48 h
Measured quantity: AUC of viability dose-response curve

Molecule: Cc1ccc(C(=O)c2cc(O)c(O)c([N+](=O)[O-])c2)cc1
Measured quantity: AUC of viability dose-response curve
Meas value: 434

Molecule: O=C1NC(=O)/C(=C/c2cccc(C(F)(F)F)c2)S1
Measured quantity: AUC of viability dose-response curve
Meas value: 467

Molecule: C[N+](C)([O-])CCNc1ccc(NCC[N+](C)(C)[O-])c2c1C(=O)c1c(O)ccc(O)c1C2=O
Measured quantity: AUC of viability dose-response curve
Meas value: 281

Molecule: CN(C)CCN(Cc1ccc(Cl)cc1)c1ccccn1.Cl
Measured quantity: AUC of viability dose-response curve
Meas value: 452

Molecule: CC(=O)Nc1sc2c(c1-c1nc3ccccc3s1)CNC2
Measured quantity: AUC of viability dose-response curve
Meas value: 439

Molecule: CC(C)[C@H](CO)Nc1nc(Nc2cccc(Cl)c2)c2ncn(C(C)C)c2n1
Measured quantity: AUC of viability dose-response curve
Meas value: 284

Molecule: CCCCCCCCCCCCCCCCCCOP(=O)([O-])OC1CC[N+](C)(C)CC1
Measured quantity: AUC of viability dose-response curve
Meas value: 442

Molecule: CC(=O)O[C@@]12CO[C@@H]1C[C@H](O)[C@]3(C)[C@@H]2[C@H](OC(=O)C4=CC=CC=C4)[C@]5(O)C[C@H](OC(=O)C(O)[C@@H](NC(=O)OC(C)(C)C)C6=CC=CC=C6)C(=C(/[C@@H](O)C3=O)C5(C)C)/C (stereo partly drawn)
Measured quantity: AUC of viability dose-response curve
Meas value: 86.9

Molecule: O=C(CCc1ccc(O)cc1)c1c(O)cc(O)cc1O[C@@H]1O[C@H](CO)[C@@H](O)[C@H](O)[C@H]1O
Measured quantity: AUC of viability dose-response curve
Meas value: 412

Molecule: C[S+]([O-])c1ccc(-c2nc(-c3ccc(F)cc3)c(-c3ccncc3)[nH]2)cc1 (stereo not drawn)
Measured quantity: AUC of viability dose-response curve
Meas value: 324

Molecule: CC(C)(C)NC(=O)[C@@H]1CN(Cc2cccnc2)CCN1C[C@@H](O)C[C@@H](Cc1ccccc1)C(=O)N[C@H]1c2ccccc2C[C@H]1O.O=S(=O)(O)O
Measured quantity: AUC of viability dose-response curve
Meas value: 454

Molecule: COc1cc(OC)c(NC(=O)Nc2cc(C)on2)cc1Cl
Measured quantity: AUC of viability dose-response curve
Meas value: 453

Molecule: Cc1cc(O)c2c(c1)C(=O)c1cc(O)cc(O)c1C2=O
Measured quantity: AUC of viability dose-response curve
Meas value: 469

Molecule: CCCCN(CCCC)C(=O)CN1C[C@H](c2ccc3c(c2)OCO3)[C@@H](C(=O)O)[C@@H]1c1ccc(OC)cc1
Measured quantity: AUC of viability dose-response curve
Meas value: 432

Molecule: CO[C@@H]1C(N(C)C(=O)c2ccccc2)C[C@H]2O[C@]1(C)n1c3ccccc3c3c4c(c5c6ccccc6n2c5c31)C(=O)NC4=O (stereo partly drawn)
Measured quantity: AUC of viability dose-response curve
Meas value: 327

Molecule: O=C1NC(O)CCN1[C@@H]1O[C@H](CO)[C@@H](O)[C@H]1O (stereo partly drawn)
Measured quantity: AUC of viability dose-response curve
Meas value: 465

Molecule: CO[C@H]1C[C@@H]2CC[C@@H](C)[C@@](O)(O2)C(=O)C(=O)N2CCCC[C@H]2C(=O)O[C@H]([C@H](C)C[C@@H]2CC[C@@H](OCCO)[C@H](OC)C2)CC(=O)[C@H](C)/C=C(/C)[C@@H](O)[C@@H](OC)C(=O)[C@H](C)C[C@H](C)\C=C/C=C\C=C/1C
Measured quantity: AUC of viability dose-response curve
Meas value: 233

Molecule: CC(NCc1ccc2c(c1)[nH]/c(=N\C(=O)c1ccc(-c3cn[nH]c3)s1)n2CC(C)(C)O)C(C)(C)C (stereo not drawn)
Measured quantity: AUC of viability dose-response curve
Meas value: 170
